- assay explanation: soluble on expression in E. coli; label from the status in PepcDB or PDB records
property: soluble on expression in E. coli

• MDIGDHGTHCAGIIAGFGPNVKIASLKHLSGNKFKDLDNWVSTMIKAINYADAMDIKIVNVSLGLHKSQIGDRPFDSQALNDAISNADLLFVTAAGNFNKNIDLPDDVIYPASCTAENIITVANTDKDDKLYESSNYGVISVDLAAPGTDIRSTIPTHLAGEGGPYDIKTGTSMSAPHVAGAAALLLSSNPSLTTQQLKDLILSSVDFLPDLQGKVATSGRLNVAKALRKIRTSVKIGDIDGNGEISSIDYAILKSHLINSNLTFKQLAAADVDGNGYVNSIDLAILQMYLLGKGGTSDIGKNRIYTYGDIDNNGIVDENDYILICNHINGTGQLSDASLFAADADGNNVIDQTDRILIEKYITGRITHLPVGNQ = not soluble
• MMTVLRSQIESILLVVDQPASVAALARATEAAPETVTSVLRSMAQEFEDRGSGIEVRESPEGWRLYTVKRNADVVEKFLLDGSHTKLSRAALETLAVVAYRQPATRAQVAAVRGVNVDGVMRTLQLRGLIREVAINPGTEGVNGSAHRYETTELFLDLLGIDSLERLPDLAPLLPDIDSIDEYF = not soluble

// data source = the DeepSol protein solubility set
